All figures here come from ChEMBL document CHEMBL5550093.

Tested on: A549
Assay: Antiproliferative activity against human A549 cells at 5 uM incubated for 48 hrs by MTT assay relative to control
Format: functional
property_measured: inhibition at 5 µM (%)
Write the answer as a number in %, unit excluded.

Worked cases, answers included:
CC(C)[C@H](N)c1nc(Nc2ccc(N3CCOCC3)cc2)c2ccccc2n1 ... -0.7
COc1cc(N2CCNCC2)ccc1Nc1nc(C(=O)c2ccc(F)cc2)nc2ccccc12 ... -0.5
COc1cccc2c1C(=O)c1c(O)c3c(c(O)c1C2=O)C[C@@](O)(C(=O)CO)C[C@@H]3O[C@H]1C[C@H](N)[C@H](O)[C@H](C)O1 [DOXORUBICIN] ... 30.1

Any idea what its inhibition at 5 µM is? The molecule is COc1cccc(C(=O)c2nc(Nc3ccc(OC)c(OC)c3)c3ccccc3n2)c1
47.4
